System: Rattus norvegicus
Test: Antiinflammatory activity in Wistar rat assessed as inhibition of carrageenan-induced hind paw oedema at 20 mg/kg, po administered 30 mins before carrageenan challenge measured after 3 hrs by plethysmometer relative to control
Format: functional
Use 80% as the dividing line for inhibition in vivo at 20 mg/kg, with the line itself on the T side and lower values as F.

- COc1cc(C)c(Cl)c(C)c1C(=O)/C=C/c1ccc(N(C)C)cc1: F
- Cc1cc(O)c(C(=O)/C=C/c2ccccc2)c(C)c1Cl: F
- COc1ccc(C2CC(=O)c3c(cc(C)c(Cl)c3C)O2)cc1 (stereo unspecified): F
- Cc1cc(O)c(C(=O)/C=C/c2cccc(O)c2)c(C)c1Cl: T

----------
Test system: Rattus norvegicus
Test: Antiinflammatory activity in Wistar rat assessed as inhibition of carrageenan-induced hind paw oedema at 20 mg/kg, po administered 30 mins before carrageenan challenge measured after 3 hrs by plethysmometer relative to control
Format: functional
Binning rule for recorded inhibition in vivo at 20 mg/kg: bin A (below 30%), bin B (30% to below 40%), bin C (40% or more)

• Cc1cc(O)c(C(=O)/C=C/c2ccc(Cl)cc2)c(C)c1Cl = bin C
• COc1ccc(C2CC(=O)c3c(cc(C)c(Cl)c3C)O2)cc1OC (stereo unspecified) = bin C
• Cc1cc(O)c(C(=O)/C=C/c2ccccc2Cl)c(C)c1Cl = bin B
• COc1cc(C2CC(=O)c3c(cc(C)c(Cl)c3C)O2)ccc1O (stereo unspecified) = bin C
• Cc1cc2c(c(C)c1Cl)C(=O)CC(c1ccccc1Cl)O2 (stereo unspecified) = bin A
• Cc1cc2oc(-c3ccc(Cl)cc3)cc(=O)c2c(C)c1Cl = bin A
• Cc1cc2c(c(C)c1Cl)C(=O)CC(c1ccc(Cl)cc1)O2 (stereo unspecified) = bin B
• COc1cc(/C=C/C(=O)c2c(OC)cc(C)c(Cl)c2C)ccc1O = bin A
• Cc1cc2c(c(C)c1Cl)C(=O)CC(c1cccc([N+](=O)[O-])c1)O2 (stereo unspecified) = bin C
• COc1cc(C)c(Cl)c(C)c1C(=O)/C=C/c1ccccc1 = bin C
• COc1cc(C)c(Cl)c(C)c1C(=O)/C=C/c1ccccc1Cl = bin A

----------
Tested on: Rattus norvegicus
Assay: Antiinflammatory activity in Wistar rat assessed as inhibition of carrageenan-induced hind paw oedema at 20 mg/kg, po administered 30 mins before carrageenan challenge measured after 3 hrs by plethysmometer relative to control
Type: functional
Catalogue of inhibition in vivo at 20 mg/kg values
measure: inhibition in vivo at 20 mg/kg (%)

• COc1ccc(/C=C/C(=O)c2c(OC)cc(C)c(Cl)c2C)cc1OC = 81
• Cc1cc2oc(-c3ccccc3Cl)cc(=O)c2c(C)c1Cl = 36.8
• COc1ccc(/C=C/C(=O)c2c(OC)cc(C)c(Cl)c2C)cc1 = 16.7
• COc1cc(C)c(Cl)c(C)c1C(=O)/C=C/c1ccc(Cl)cc1 = 22.2
• Cc1cc2c(c(C)c1Cl)C(=O)CC(c1ccccc1O)O2 (stereo unspecified) = 58.8
• COc1cc(C)c(Cl)c(C)c1C(=O)/C=C/c1ccccc1[N+](=O)[O-] = 63.6
• COc1ccc(-c2cc(=O)c3c(C)c(Cl)c(C)cc3o2)cc1OC = 43.1
• COc1ccc(-c2cc(=O)c3c(C)c(Cl)c(C)cc3o2)cc1 = 58
• Cc1cc2c(c(C)c1Cl)C(=O)CC(c1cccc(O)c1)O2 (stereo unspecified) = 46.4
• COc1cc(C2CC(=O)c3c(cc(C)c(Cl)c3C)O2)cc(OC)c1OC (stereo unspecified) = 48.5
• COc1cc(C)c(Cl)c(C)c1C(=O)/C=C/c1ccccc1O = 33.3
• COc1ccc(/C=C/C(=O)c2c(O)cc(C)c(Cl)c2C)cc1 = 50
• COc1cc(/C=C/C(=O)c2c(OC)cc(C)c(Cl)c2C)cc(OC)c1OC = 76.9
• Cc1cc2oc(-c3ccccc3)cc(=O)c2c(C)c1Cl = 26.3
• Cc1cc2c(c(C)c1Cl)C(=O)CC(c1ccccc1)O2 (stereo unspecified) = 43.3
• Cc1cc(O)c(C(=O)/C=C/c2ccccc2[N+](=O)[O-])c(C)c1Cl = 26.3
• COc1ccc2c(c1)c(CC(=O)O)c(C)n2C(=O)c1ccc(Cl)cc1 [INDOMETHACIN] = 67
• COc1cc(/C=C/C(=O)c2c(O)cc(C)c(Cl)c2C)cc(OC)c1OC = 91.7
• COc1ccc(/C=C/C(=O)c2c(O)cc(C)c(Cl)c2C)cc1OC = 71
• COc1cc(-c2cc(=O)c3c(C)c(Cl)c(C)cc3o2)cc(OC)c1OC = 68.4
• COc1cc(C)c(Cl)c(C)c1C(=O)/C=C/c1cccc([N+](=O)[O-])c1 = 68.2

----------
Test system: Rattus norvegicus
Assay: Gastrointestinal toxicity in Wistar rat assessed as ulcerogenic index at 60 mg/kg, po after 6 hrs relative to control
Assay type: organism-based
Design: dose 60 mg/kg, route oral
Conditions: in vivo
Catalogue of UI values
measure: UI (mm)

- COc1cc(-c2cc(=O)c3c(C)c(Cl)c(C)cc3o2)cc(OC)c1OC: 0
- COc1cc(C)c(Cl)c(C)c1C(=O)/C=C/c1cccc(O)c1: 0.33
- COc1ccc(/C=C/C(=O)c2c(OC)cc(C)c(Cl)c2C)cc1OC: 0.16
